Test system: HCT-15
Consider the following compounds and their measured GI50 readings.
READOUT LABEL: GI50 (µM)

# COMPOUND, READOUT LABEL, CENSOR SYMBOL, MEASURED VALUE
records = [
    ("Oc1ccccc1-c1nn2c(CCCCCCCCc3nnc4sc(-c5ccccc5O)nn34)nnc2s1", "GI50", "=", 7.6),
    ("O=[N+]([O-])C(=C(N1CCOCC1)N1CCOCC1)/C(Cl)=C(\\Cl)[N+](=O)[O-]", "GI50", "=", 2.7),
    ("Cc1ccc(N(C(=O)CC(=O)N2N=C(c3ccccc3)C(/N=N/c3ccc([N+](=O)[O-])cc3)C2=O)C(=O)c2ccc(Cl)cc2)cc1 (configuration not stated)", "GI50", "=", 13.2),
    ("c1ccc(COc2ncccc2C2SCCCS2)cc1", "GI50", ">", 100),
    ("CC(=O)/C(=C\\I)c1ccccc1", "GI50", "=", 1.83),
    ("CCO/C=C1\\N=C(C(Cl)c2ccccc2)OC1=O (configuration not stated)", "GI50", ">", 100),
    ("O=C(O)CSc1ncccc1[N+](=O)[O-]", "GI50", ">", 100),
]

###

System: HCT-116
Assay: NCI tumour cell line growth inhibition, 48 h
The source made the active and inactive calls. Cut-off read from the data, not from the text of the source: active = GI50 up to about 1.1 µM and inactive = higher.
READOUT LABEL: GI50

# MOLECULE, MEASURED VALUE
rows = [
    ("O=C1C(Cl)=C(N2CCC[C@H]2CO)C(=O)c2c(O)ccc(O)c21", "1.64 µM (inactive)"),
    ("ClCc1nnc2n1-c1ccc(Cl)cc1SC2", "3.1 µM (inactive)"),
    ("CCc1ccc2c(c1)/C(=C1/Nc3ccccc3C1=O)C(=O)N2", "7.43 µM (inactive)"),
    ("CC1=NN(c2nc(N)nc(COCc3nc(N)nc(N4N=C(C)CC4(C)C)n3)n2)C(C)(C)C1", "> 100 µM (inactive)"),
    ("COc1ccc(C2=NN(C(=O)COc3ccc(Cl)cc3)C(O)(c3ccc(Cl)cc3)C2)cc1 (stereo unspecified)", "> 100 µM (inactive)"),
    ("Cc1ccc2c(O)cc(-c3cc(C)sc3C)nc2n1", "3.84 µM (inactive)"),
    ("O=c1cnn(C2OC(CO)C(O)C2O)c(=S)[nH]1 (stereo unspecified)", "1.67 µM (inactive)"),
    ("CNC(=O)N(CCC#N)CCN(CCN(C(=O)NC)c1ccccc1)C(=O)NC", "> 100 µM (inactive)"),
    ("O=C1C=CC(O)C2C1CC13SSC4(CC5C(=O)C=CC(O)C5N4C1=O)C(=O)N23 (stereo unspecified)", "< 0.0151 µM (active)"),
    ("Cc1nn2c(=O)n(-c3cccc(-n4nnc5c(-c6ccccc6)c(C)nn5c4=O)c3C)nnc2c1-c1ccccc1", "15.8 µM (inactive)"),
    ("O=C1c2ccccc2-c2nnc(-c3ccc([N+](=O)[O-])cc3)cc21", "> 10 µM (inactive)"),
    ("CCO/C=N/C1=C(C#N)SC2=N/C(=C\\c3ccccc3)C(=O)N21", "> 100 µM (inactive)"),
    ("O=c1[nH]c2nc3ccccc3c(=O)n2/c1=C/c1cccs1", "> 100 µM (inactive)"),
    ("CCN(CC)Cc1nc(C2CCC([N+](=O)[O-])O2)no1 (stereo unspecified)", "24.3 µM (inactive)"),
    ("CC(=O)Oc1cc2c(=O)oc3c(OC(C)=O)c(OC(C)=O)c(OC(C)=O)c4c(=O)oc(c1OC(C)=O)c2c34", "24 µM (inactive)"),
    ("Cc1ccc(O)c(C2=CC(c3cccc(Br)c3)SC(=N)N2)c1 (stereo unspecified)", "17.3 µM (inactive)"),
]

The origin of these recorded values is ChEMBL document CHEMBL1201862.
